protocol_details: Stability in human serum assessed as half life measured for 5 hrs by RP-HPLC analysis
Format: ADME, cell-free
Numbered stars: 1 amine (or outer) side, 2 acyl side, 3 side chain; on linkers, the order of the positions; unused ones are H or OH. Square brackets hold non-standard residues; d marks the D form. Peptide text beside a SMILES is read from it. * marks the point of attachment. X8 = NC(=O)CN(C[C@H](Cc1ccccc1)N*)S(=O)(=O)c1cc(C(F)(F)F)cc(C(F)(F)F)c1; X5 = NC(=O)CN(C[C@H](Cc1ccccc1)N*)S(=O)(=O)c1ccc(C(F)(F)F)cc1; X4 = N[C@@H](Cc1ccccc1)CN(CC(=O)[*:2])[*:1]; X7 = O=S(=O)(c1cc(C(F)(F)F)cc(C(F)(F)F)c1)*; X2 = CC(C)C[C@H](N)CN(CC(=O)[*:2])[*:1]; X1 = O=S(=O)(c1ccc(C(F)(F)F)cc1)*
Tick YES if half-life is 3 h or greater. Tick NO if half-life is less than 3 h.

compound	cat
CC(C)C[C@H](NC(=O)[C@H](CC(C)C)NC(=O)[C@H](CCCCN)NC(=O)[C@H](CC(C)C)NC(=O)[C@@H](N)Cc1ccccc1)C(=O)N[C@@H](CCCCN)C(=O)N[C@@H](CCCCN)C(=O)N[C@@H](Cc1ccccc1)CN(CC(N)=O)S(=O)(=O)c1ccc(C(F)(F)F)cc1 (H-FLKLLKK-X5)	NO
CC(C)C[C@H](NC(=O)[C@H](CC(C)C)NC(=O)[C@H](CCCCN)NC(=O)[C@H](CC(C)C)NC(=O)[C@@H](N)Cc1ccccc1)C(=O)N[C@@H](CCCCN)C(=O)N[C@@H](CCCCN)C(=O)N[C@@H](Cc1ccccc1)CN(CC(N)=O)S(=O)(=O)c1cc(C(F)(F)F)cc(C(F)(F)F)c1 (H-FLKLLKK-X8)	YES
CC(C)C[C@H](N)CN(CC(=O)N[C@@H](CCCCN)C(=O)N[C@@H](CC(C)C)C(=O)N[C@@H](CC(C)C)C(=O)N[C@@H](CCCCN)C(=O)N[C@@H](CCCCN)C(=O)N[C@@H](CC(C)C)C(=O)N[C@@H](CC(C)C)C(N)=O)S(=O)(=O)c1cc(C(F)(F)F)cc(C(F)(F)F)c1 (X7-[X2]KLLKKLL-NH2)	YES
CC(C)C[C@H](NC(=O)[C@H](CC(C)C)NC(=O)[C@H](CCCCN)NC(=O)[C@H](CCCCN)NC(=O)[C@H](CC(C)C)NC(=O)[C@H](CC(C)C)NC(=O)[C@H](CCCCN)NC(=O)CN(C[C@@H](N)Cc1ccccc1)S(=O)(=O)c1ccc(C(F)(F)F)cc1)C(N)=O (X1-[X4]KLLKKLL-NH2)	YES
CC(C)C[C@H](NC(=O)[C@H](CC(C)C)NC(=O)[C@H](CCCCN)NC(=O)[C@H](CCCCN)NC(=O)[C@H](CC(C)C)NC(=O)[C@H](C)NC(=O)[C@H](CCCCN)NC(=O)CN(C[C@@H](N)Cc1ccccc1)S(=O)(=O)c1ccc(C(F)(F)F)cc1)C(N)=O (X1-[X4]KALKKLL-NH2)	YES
CC(C)C[C@H](NC(=O)[C@H](CC(C)C)NC(=O)[C@H](CCCCN)NC(=O)[C@H](CCCCN)NC(=O)[C@H](CC(C)C)NC(=O)[C@H](CC(C)C)NC(=O)[C@H](CCCCN)NC(=O)CN(C[C@@H](N)Cc1ccccc1)S(=O)(=O)c1cc(C(F)(F)F)cc(C(F)(F)F)c1)C(N)=O (X7-[X4]KLLKKLL-NH2)	YES
